- System: K562;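 also: after 48 h exposure read by CellTiter-Glo luminescence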
- Assay comment: cell viability relative to vehicle control; higher = less cytotoxic
- Run conditions: 10 µM; SRSF2 genotype: SRSF2 wt/wt
Where a name gives a salt, the structure may show the parent alone.
So basically: is cell viability under 80%? Then y. Not under? Then n.

>>> answer_label("CN1[C@@H]2CC[C@H]1C[C@@H](OC(=O)c1c[nH]c3ccccc13)C2 [Tropisetron]")
"n"
>>> answer_label("Cc1ccc([N+](=O)[O-])cc1S(=O)(=O)N(C)/N=C/c1cnc2ccc(Br)cn12")
"y"
>>> answer_label("N[C@@H](C(=O)N[C@@H]1C(=O)N2C(C(=O)O)=C(Cl)CS[C@H]12)c1ccccc1 [Cefaclor]")
"n"
>>> answer_label("CNC[C@H](O)[C@@H](O)[C@H](O)[C@H](O)CO [Meglumine]")
"n"
>>> answer_label("CN1CCN(Cc2ccc(NC(=O)Nc3ccc(Oc4ccnc(N)n4)cc3)cc2C(F)(F)F)CC1")
"y"
>>> answer_label("CC(C)c1cc(C(C)C)c(CC(=O)NS(=O)(=O)Oc2c(C(C)C)cccc2C(C)C)c(C(C)C)c1 [Avasimibe (CI-1011)]")
"y"
>>> answer_label("C[C@@H](NCCCc1cccc(C(F)(F)F)c1)c1cccc2ccccc12 [AMG-073 HCl (Cinacalcet hydrochloride)]")
"y"
